target: Adenosine A2 receptor (Rattus norvegicus, UniProt P29276+P30543); assay: Binding affinity against Adenosine-2 receptor with [3H]-NECA in rat striatal membranes.; assay type: cell membranes
Property: Ki (µM)

A = c1ccc2c(c1)nc(NC1CCCC1)c1nncn12
B = CCN(CC)c1nc2ccccc2n2cnnc12
C = Cc1nnc2c(NC3CCCC3)nc3ccccc3n12
D = FC(F)(F)c1nnc2c(NC3CCCC3)nc3ccccc3n12
E = CCc1nnc2c(NC3CCC3)nc3ccccc3n12
List the 5 compounds shown above, ordered by increasing Ki. Note for the reader: the ranking is given by listing the labels in the order requested. D, E, C, A, B
(D: 1.01 µM, E: 1.71 µM, C: 2.7 µM, A: 6.7 µM, B: 18.8 µM)

a = CCc1nnc2c(NCC(C)O)nc3ccccc3n12 (centres undefined)
b = CC(C)Nc1nc2ccccc2n2cnnc12
Returns: the label, a or b , whose recorded Ki is the lower number. Field: selected label. Fill in the label of the entry you choose. b
(b: 7 µM, a: 22 µM)

Cited source: ChEMBL document CHEMBL1124099
